Cited source for all entries: PubChem BioAssay

Here the recorded z-score is given for each entry.
- Procedure text: PSAC antagonists in infected red cells, primary screen, cell-based, P. falciparum Indochina, OD700, 18 h (AID 1157)
- Stated conditions: P. falciparum Indochina infected erythrocytes, osmotic lysis OD700, 18 h; higher = more signal, called active from +8 up or from −8 down
Activity calls are given as the source filed them.

# Chem smiles, z-score
data = [
    ("CCCCc1cn(C[C@H](Cc2ccccc2)NC(=O)N[C@H](CO)CCc2oc(C(C)=O)c(C(=O)OC)c2C(=O)OC)nn1", "-0.496 (inactive)"),
    ("COCCOC(=O)N1C(=O)[C@@]2(c3cc(C#CCNC(N)=O)ccc31)[C@H](C(=O)NC[C@H](O)c1ccccc1)[C@H]1C(=O)O[C@H](c3ccccc3)[C@H](c3ccccc3)N1[C@@H]2c1ccccc1OCCO", "0.317 (inactive)"),
    ("O=C1c2ccccc2[C@@]2(Cc3ccccc3N(CCN3CCOCC3)C2=O)[C@H](c2ccc(CO)cc2)N1Cc1ccccc1", "0.646 (inactive)"),
    ("O=C(NCC(F)(F)F)[C@@H]1c2ccccc2C(=O)N(C2CCCCC2)[C@H]1c1ccc(CO)cc1", "0.18 (inactive)"),
    ("C=CCN1C(=O)[C@]2(O[C@H](CCO)[C@@H]([Si](C)(C)c3ccc(OC)cc3)[C@@H]2C)c2cc(N3C(=O)c4cccc5cccc3c45)ccc21", "2.83 (inactive)"),
]

"Cc1ccc(S[C@]2(C(=O)NC(C)C)CC(=O)N(Cc3ccccc3Cl)[C@@H]2c2ccc(CO)cc2I)cc1" has a reported z-score of 0.377 (inactive)

"CN1C(=O)[C@]2(Cc3ccccc3)N=C(c3ccc(OCCCO)cc3)O[C@@H]2c2ccccc21" has a reported z-score of 3.54 (inactive)

"CCCCC=C[C@@H](NC(=O)Oc1cccc(C(F)(F)F)c1)c1ccccc1" has a reported z-score of -1.17 (inactive)

###

- System: wheat germ agglutinin (Triticum aestivum), Alexa647-labelled
- Procedure text: wheat germ agglutinin binders on compound microarrays, profiling panel, artefact control for SMM control-protein annotation, biochemical, small-molecule microarray, 635/667 nm fluorescence (AID 1140);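 note: score merges 667 nm feature emission with signal to noise over triplicate slides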
- Stated conditions: WGA-A647 binding, 635 nm fluorescence, higher = more signal
Please note: met applies when composite z-score is 0.6 or greater, and not met applies otherwise.

Example results:
# Molecule, Group label
rows = [
    ("CCCC[C@H]1OB(O)C[C@H]2C1=C(COc1ccccc1)C[C@H]1C(=O)N(C)C(=O)[C@H]12", "not met"),
    ("CN(C)C(=O)[C@]1(Cc2ccccc2CN=[N+]=[N-])N=C(c2ccc(OCCCO)cc2)O[C@@H]1c1ccccc1CN=[N+]=[N-]", "met"),
    ("C#CCNC(=O)[C@H](Cc1ccccc1)NC(=O)CCC(=O)O", "not met"),
    ("CCOC(=O)C[C@H]1[C@H](OC(=O)c2cc3ccccc3oc2=O)[C@@H](NC(=O)Cc2ccc(OC)cc2)c2cc(OCCCO)ccc2N1C(=O)c1ccccc1", "not met"),
    ("CC1CC/C=C\\[C@H]2OC34C=CCN(Cn5nnc6ccccc65)C(=O)[C@H]3N(C(CO)C(C)C)C(=O)[C@@H]4C2C(=O)O1 (some centres undefined)", "met"),
]

In: Quick check: does "O=C(NCc1ccccc1)[C@@]1(CCS(=O)(=O)c2ccccc2)N=C(c2ccc(OCCCO)cc2)O[C@H]1c1ccccc1" have composite z-score greater than or equal to 0.6?
Out: met

In: Quick check: does O=C1OCCC/C=C\[C@H]2OC34C=CCN(c5ccc6ccccc6c5)C(=O)[C@H]3N(CCCCCCO)C(=O)[C@@H]4C12 (some centres undefined) have composite z-score greater than or equal to 0.6?
Out: not met

In: Quick check: does "CN(C)C(=O)[C@@]1(Cc2ccccc2)N=C(c2ccc(OCCCO)cc2)O[C@H]1c1ccccc1N=[N+]=[N-]" have composite z-score greater than or equal to 0.6?
Out: not met

In: Quick check: does "CC(C)(C)OC(=O)CC[C@@]1(C(=O)NCCN2CCOCC2)N=C(c2ccc(OCCCO)cc2)O[C@@H]1c1ccccc1N=[N+]=[N-]" have composite z-score greater than or equal to 0.6?
Out: not met
